The reported numbers originate from patent US20230272051A1.

Molecular target: T1, SARS-CoV-2 Receptor Binding Domain (RBD) protein (SARS-CoV-2, UniProt P0DTC2 319-541)
T1 construct: also called Sars-Cov-2 (COV2)
Test: SPR (Carterra LSA); scFv captured by anti-V5, RBD as analyte
Please go through the items and note down their Kd.
Numbers only, in nM.

Dear colleague, could you please provide Kd for the binders listed below?
1. COVID19_P14_F05 (scFv, V domains shown) VH: QVQLVQSGAEVKKPGSSVKVSCKASGNTFSMFAINWVRQAPGQGLEWVGVINPIGSTTTYAQKFQGRVTITADESTSTAYMELSSLRSEDTAVYYCARDTVMGGMDVWGQGTLVTVSS VL: SSYVLTQPPSVSVAPGKTARITCGGNNIGSKSVHWYQQKPGQAPVLVIYYDSDRPSGIPERFSGSNSGNTATLTISRVEAGDEADYYCQVWVSSSDYVFGGGTKLTVLA
2. COVID19_P14_B08 (scFv, V domains shown) VH: QVQLVQSGAEVKKPGSSVKVSCKASGYTFTSYYVHWVRQAPGQGLEWMGGILPILGTPHYAQKFQGRVTITADESTSTAYMELSSLRSEDTAVYYCALETVMGGMTAWGQGTLVTVSS VL: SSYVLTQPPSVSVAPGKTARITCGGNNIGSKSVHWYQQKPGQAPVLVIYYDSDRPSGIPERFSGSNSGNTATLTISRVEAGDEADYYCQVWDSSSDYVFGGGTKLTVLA
3. COVID19_P01_H10 (scFv, V domains shown, also called COVID19_PO1_H10) VH: QVQLVQSGAEVKKPGSSVKVSCKASGGTFGNYPITWVRQAPGQGLEWMGIIYPGDSDARYRPSFQGRVTITADESTSTAYMELSSLRSEDTAVYYCARDFSMGGMDVWGQGTLVTVSS VL: SSYVLTQPPSVSVAPGKTARITCGGNNIGSKSVHWYQQKPGQAPVLVIYYDSDRPSGIPERFSGSNSGNTATLTISRVEAGDEADYYCQVWDDSSDYVFGGGTKLTVLA

*A*
21.7
30.8
39.3

For each of the binders below, state Kd.
1. COVID19_P14_C12 (scFv, V domains shown) VH: QVQLVQSGAEVKKPGSSVKVSCKASGYTFTTYDINWVRQAPGQGLEWMGIIDPIGGTTNYAQKFQGRVTITADESTSTAYMELSSLRSEDTAVYYCARDTVGFGMDVWGQGTLVTVSS VL: SSYVLTQPPSVSVAPGKTARITCGGNNIGSKSVHWYQQKPGQAPVLVIYDDSDRPSGIPERFSGSNSGNTATLTISRVEAGDEADYYCQVWDSSSLYVFGGGTKLTVLA
2. COVID19_P01_B06 (scFv, V domains shown) VH: QVQLVQSGAEVKKPGSSVKVSCKASGYTFSAYYMHWVRQAPGQGLEWMGGITPLFGTPSYAQKFQGRVTITADESTSTAYMELSSLRSEDTAVYYCALETVMGGVGVWGQGTLVTVSS VL: SSYVLTQPPSVSVAPGKTARITCGGNNIGSKSVHWYQQKPGQAPVLVIYYDSDRPSGIPERFSGSNSGNTATLTISRVEAVDEADYYCQVWDSSSDYVFGGGTKLTVLA

*A*
1: 7.8; 2: 28
